- Test system: SF-295 CNS
- Assay Method Text: NCI tumour cell line growth inhibition, 48 h
Answer each item with its documented TGI.
Field: numeric (µM). Do not append units.

Write down the reported TGI (system: SF-295 CNS) of S=C(Nc1cc(Cl)c(Cl)cc1Cl)SCc1ccccc1
42.6

Write down the reported TGI (system: SF-295 CNS) of CCNCCNc1cc(C2CCCCC2)c(C#N)c2nc3ccccc3n12
3.36

Write down the reported TGI (system: SF-295 CNS) of Cc1[nH]c2ccccc2c1CCNCc1ccc(/C=C/C(=O)NO)cc1
0.0563

Write down the reported TGI (system: SF-295 CNS) of O=C1C(=C(I)I)c2ccccc2-c2ccccc21
31.8

Write down the reported TGI (system: SF-295 CNS) of CC(C)c1ccc(Nc2nccc(-c3cnn4ncccc34)n2)cc1
12.2

Write down the reported TGI (system: SF-295 CNS) of C[C@]12CCc3sc(Nc4ccc(O)cc4)nc3C1=CC[C@@H]1[C@@H]2CC[C@]2(C)C(=O)CC[C@@H]12
35.9
